Gamma-aminobutyric acid receptor subunit alpha-3 (Homo sapiens) data, read-out Ki
Sequence (P34903 whole entry): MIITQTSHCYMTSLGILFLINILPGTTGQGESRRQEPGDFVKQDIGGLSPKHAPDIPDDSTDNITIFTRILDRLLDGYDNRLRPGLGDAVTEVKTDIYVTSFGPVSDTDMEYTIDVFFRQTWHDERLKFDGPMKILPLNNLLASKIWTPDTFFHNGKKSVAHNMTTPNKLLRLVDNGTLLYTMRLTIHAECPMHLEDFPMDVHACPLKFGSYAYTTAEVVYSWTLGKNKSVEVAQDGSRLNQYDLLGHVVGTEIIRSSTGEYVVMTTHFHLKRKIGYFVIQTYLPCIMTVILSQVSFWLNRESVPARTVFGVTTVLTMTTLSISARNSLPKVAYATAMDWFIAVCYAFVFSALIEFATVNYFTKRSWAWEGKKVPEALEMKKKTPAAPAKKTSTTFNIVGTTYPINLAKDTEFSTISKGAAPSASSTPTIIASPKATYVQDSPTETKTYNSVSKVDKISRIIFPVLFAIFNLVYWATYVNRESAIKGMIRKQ
experimental_endpoint: Ki

>>> result("O=C1CN=C(c2ccccc2Cl)c2cc([N+](=O)[O-])ccc2N1")
"2 nM"
>>> result("COC(=O)c1cc2c(cn1)[nH]c1ccccc12")
"4.1 nM"
>>> result("CCc1c(C(=O)OC)ncc2[nH]c3cc(OC)c(OC)cc3c12 [NSC_104999]")
"10.6 nM"
>>> result("O=C1CN=C(c2ccccc2F)c2cc(Cl)ccc2N1CC(F)(F)F [NSC_93250]")
"205 nM"
